B1: library; a variant is named by its letters at N, in order (parent)
chain: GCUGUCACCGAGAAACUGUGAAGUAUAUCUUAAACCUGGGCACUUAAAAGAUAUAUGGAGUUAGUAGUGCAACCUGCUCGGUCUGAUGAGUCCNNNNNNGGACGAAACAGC

Variants of: B1
assay_method_text: FACS-Seq fitted mean relative fluorescence mCherry/BFP with ligand (log10 relative fluorescence); HEK293T; ligand: cyclic di-GMP (c-di-GMP-II aptamer); ligand concentration (+) FACS-Seq: 1 mM; higher = higher reporter protein expression
test_parameters: ligand present: yes
quantity: FACS-Seq fitted mean (log10)
Hey, just send me the number, nothing else.

seq_text | FACS-Seq fitted mean (log10)
GCUGUCACCGAGAAACUGUGAAGUAUAUCUUAAACCUGGGCACUUAAAAGAUAUAUGGAGUUAGUAGUGCAACCUGCUCGGUCUGAUGAGUCCGAAAGUGGACGAAACAGC [GAAAGU] | -0.0693
GCUGUCACCGAGAAACUGUGAAGUAUAUCUUAAACCUGGGCACUUAAAAGAUAUAUGGAGUUAGUAGUGCAACCUGCUCGGUCUGAUGAGUCCUCAUGUGGACGAAACAGC [UCAUGU] | -0.517
GCUGUCACCGAGAAACUGUGAAGUAUAUCUUAAACCUGGGCACUUAAAAGAUAUAUGGAGUUAGUAGUGCAACCUGCUCGGUCUGAUGAGUCCAAACUUGGACGAAACAGC [AAACUU] | 0.118
GCUGUCACCGAGAAACUGUGAAGUAUAUCUUAAACCUGGGCACUUAAAAGAUAUAUGGAGUUAGUAGUGCAACCUGCUCGGUCUGAUGAGUCCACUUUUGGACGAAACAGC [ACUUUU] | 0.272
GCUGUCACCGAGAAACUGUGAAGUAUAUCUUAAACCUGGGCACUUAAAAGAUAUAUGGAGUUAGUAGUGCAACCUGCUCGGUCUGAUGAGUCCGUGUUAGGACGAAACAGC [GUGUUA] | 0.207

Input line: Suppose we examine the variant GCUGUCACCGAGAAACUGUGAAGUAUAUCUUAAACCUGGGCACUUAAAAGAUAUAUGGAGUUAGUAGUGCAACCUGCUCGGUCUGAUGAGUCCAGCGUCGGACGAAACAGC [AGCGUC] ; what FACS-Seq fitted mean (log10) value has been reported?
Output line: -0.542

Input line: Suppose we examine the variant GCUGUCACCGAGAAACUGUGAAGUAUAUCUUAAACCUGGGCACUUAAAAGAUAUAUGGAGUUAGUAGUGCAACCUGCUCGGUCUGAUGAGUCCCAGUUCGGACGAAACAGC [CAGUUC] ; what FACS-Seq fitted mean (log10) value has been reported?
Output line: -0.116

Input line: Suppose we examine the variant GCUGUCACCGAGAAACUGUGAAGUAUAUCUUAAACCUGGGCACUUAAAAGAUAUAUGGAGUUAGUAGUGCAACCUGCUCGGUCUGAUGAGUCCGAUUAAGGACGAAACAGC [GAUUAA] ; what FACS-Seq fitted mean (log10) value has been reported?
Output line: 0.211
